Data origin: ChEMBL document CHEMBL4622959

target: Bromodomain-containing protein 4 (Homo sapiens); assay: Displacement of APC-labeled biotinylated-avidin from […]-chelated recombinant human N-terminal GST-tagged BRD4 bromodomain 1 expressed in Escherichia coli preincubated for 15 mins followed by APC-labeled biotinylated-avidin addition and measured after 1 hr under dark condition by TR-FRET assay
Mark Met for IC50 under 900 nM, Not met if at or over.

Here's what some known entries look like.
[
  {
    "molecule": "COc1ccc2c(c1)C(c1ccc(Cl)cc1)=NC(CC(=O)N1CCOCC1)c1sc(=O)n(C)c1-2 (stereo not given)",
    "test_target": "Bromodomain-containing protein 4 (Homo sapiens)",
    "class_assignment": "Met"
  },
  {
    "molecule": "CCNC(=O)CC1N=C(c2ccc(Cl)cc2)c2cc(OC)ccc2-c2c1sc(=O)n2C (stereo not given)",
    "test_target": "Bromodomain-containing protein 4 (Homo sapiens)",
    "class_assignment": "Met"
  },
  {
    "molecule": "COc1ccc2c(c1)C(c1ccc(Cl)cc1)=NC(CC(=O)NC(C)(C)C)c1sc(=O)n(C)c1-2 (stereo not given)",
    "test_target": "Bromodomain-containing protein 4 (Homo sapiens)",
    "class_assignment": "Met"
  },
  {
    "molecule": "CCCCNC(=O)CC1N=C(c2ccc(Cl)cc2)c2cc(OC)ccc2-c2c1sc(=O)n2C (stereo not given)",
    "test_target": "Bromodomain-containing protein 4 (Homo sapiens)",
    "class_assignment": "Not met"
  }
]

**Q:** Item COc1ccc2c(c1)C(c1ccc(Cl)cc1)=NC(CC(=O)O)c1sc(=O)n(C)c1-2 (stereo not given) : IC50 beneath 900 nM, strictly?
**A:** Met
